The entries below come with measured TGI values attached.
- Test system: OVCAR-5 ovarian
- Method: NCI tumour cell line growth inhibition, 48 h

Molecule: Clc1cccc(Cl)c1C1SCc2nc3ccccc3n21 (stereo unspecified)
Result: > 100 µM
--
Molecule: COc1c(C)c(O)c2c(=O)cc(-c3ccccc3)oc2c1C
Result: > 100 µM
--
Molecule: CCNC(=O)N(CC)CN(CC)C(=O)NCC
Result: > 100 µM

Please list TGI recorded for the molecule Cc1ccc(S(=O)(=O)NC(=O)NC(C(=O)O)C(C)C)cc1 (stereo unspecified) > 100 µM

Please list TGI recorded for the molecule O=C1c2[nH]c3ccccc3c2CCN2CCCCC12 (stereo unspecified) 44.1 µM

Please list TGI recorded for the molecule N[C@]1(C(=O)O)C[C@@H]2C(Br)=NO[C@@H]2C1 > 100 µM

###

- Test system: DLD-1 colon
- Method: NCI tumour cell line growth inhibition, 48 h
Readout Kind: TGI

Look over these answered cases.
Molecule: COC1=CC(=Nc2c(Cl)cc(Cl)cc2OC(=O)c2ccc([N+](=O)[O-])cc2)C=C(OC)C1=O
TGI: 30 µM
//
Molecule: O=C(CC1(O)C(=O)Nc2c(Cl)ccc(Cl)c21)c1ccco1 (stereo not drawn)
TGI: > 100 µM

Recall the reported TGI of O=S1(=O)OCCOS(=O)(=O)C1(Br)Cc1ccccc1 when tested on DLD-1 colon. > 100 µM

###

The entries below come with measured GI50 values attached.
- Tested on: SK-MEL-2 melanoma
- Method: NCI tumour cell line growth inhibition, 48 h

Look over these answered cases.
Compound: CN(C)c1cc[n+](/C(NS(=O)(=O)c2cc(C(=O)Nc3ccc(Cl)cc3)c(Cl)cc2[S-])=C(\C#N)C(=O)c2ccccc2)cc1
GI50: 85 µM
//
Compound: O=c1c2cc(F)ccc2sc2c(Nc3ccncc3)nc3ccccc3c12
GI50: 11.2 µM
//
Compound: NCCCOc1cc2ccccc2cc1C(=O)NCCOc1nc2ccccc2cc1C(=O)Nc1ccc(Cl)cc1O
GI50: 1.87 µM
//
Compound: COc1cc(-c2ccc(-c3ccc(C(=N)N)cc3)s2)cc(OC)c1OC
GI50: 1.91 µM
//
Compound: CCCCCCCCCCS(=O)CC(CO)NC(=O)/C=C/c1c(C)[nH]c(=O)[nH]c1=O (centres undefined)
GI50: 25.8 µM
//
Compound: O=C([O-])c1cc(I)cc(I)c1[OH2+].O=C([O-])c1cc(I)cc(I)c1[OH2+].[Mn+2]
GI50: 48.5 µM
//
Compound: CCOC(=O)N1C/C(=C/c2ccc(Cl)cc2)C(=O)/C(=C/c2ccc(Cl)cc2)C1
GI50: 19.6 µM
//
Compound: Nc1nonc1C(=Nc1ccc(F)c(Cl)c1)NO
GI50: 65 µM

Shift focus to the following entry.
Please list GI50 recorded for the compound O=C1Nc2ccccc2/C1=C\c1c(Cl)nc2sccn12 4.16 µM

###

- Tested on: SF-268 CNS
- Method: NCI tumour cell line growth inhibition, 48 h
Readout Kind: TGI

Look over these answered cases.
Compound: O=C(/C=C/NC(=O)OCc1ccccc1)OCc1ccccc1
Subject Of Test: SF-268 CNS
TGI: > 100 µM

Compound: CC1=NC(C)(C)[N+]([O-])=C1
Subject Of Test: SF-268 CNS
TGI: > 10 µM

Compound: CNc1ccccc1-c1nc2ccccc2c(=O)o1
Subject Of Test: SF-268 CNS
TGI: > 100 µM

Compound: COc1cc2c(cc1OC)C1[C@@H](c3ccccc3)OCN1CC2 (stereo not given in full)
Subject Of Test: SF-268 CNS
TGI: > 100 µM

Compound: COC(=O)CN(CC1O[C@@H]2OC(C)(C)O[C@@H]2C1N=[N+]=[N-])C(=O)OCc1ccccc1 (stereo not given in full)
Subject Of Test: SF-268 CNS
TGI: > 100 µM

Compound: Cc1ccc(-n2c(=O)c3nn4c(=O)n(-c5ccc(C)cc5)c(=O)c4nn3c2=O)cc1
Subject Of Test: SF-268 CNS
TGI: > 100 µM

Compound: CC1=C(O)C(=O)C(C2=C(O)C(=O)C(C)=C(O)C2=O)=C(O)C1=O
Subject Of Test: SF-268 CNS
TGI: > 100 µM

Compound: C=CCN1CCN([C@H](c2ccc(C(=O)N(CC)CC)cc2)c2cccc(OC)c2)CC1
Subject Of Test: SF-268 CNS
TGI: > 25 µM

Compound: COc1ccc(CC(C)=C(c2ccc(OCCN3CCCCCC3)cc2)c2ccc(OCCN3CCCCCC3)cc2)cc1
Subject Of Test: SF-268 CNS
TGI: 1.15 µM

Please list TGI recorded for the compound NCCCOc1cc2ccccc2cc1C(=O)NCCOc1nc2ccccc2cc1C(=O)Nc1ccc(Cl)cc1O 2.69 µM

###

- Tested on: SF-539 CNS
- Method: NCI tumour cell line growth inhibition, 48 h
Residues, ends and D or L forms follow the SMILES beside them. *: point of attachment. Boc = CC(C)(C)OC(=O)*; OBn = c1ccc(CO*)cc1
The entries below come with measured TGI values attached.

Look over these answered cases.
Compound: CCOc1ccc(N=Nc2ccc3oc(=O)c(/C(C)=N/NC(=O)CC(=O)Nc4cccc(OC)c4)cc3c2)cc1
Result: 51 µM
//
Compound: O=C1C(Cl)=C(N2CCN(CCOCCO)CC2)C(=O)c2ncccc21
Result: > 10 µM
//
Compound: COCOc1cc(OCOC)cc(C(=O)Oc2ccccc2)c1
Result: > 100 µM
//
Compound: CC(C)CC(NC(=O)OC(C)(C)C)C(=O)NC(CC(=O)OCc1ccccc1)C(N)=O (stereo not drawn) (Boc-Leu-Asp(OBn)-NH2; configuration not given here)
Result: > 100 µM
//
Compound: CCOC(=O)C1CCCCN1C(=O)OCc1ccccc1 (centres undefined)
Result: > 100 µM

Please list TGI recorded for the compound Cn1ncc(NC(=O)c2nc(-c3c(F)cccc3F)sc2N)c1N1CC[C@@H](N)[C@H](F)CC1 15.3 µM

Please list TGI recorded for the compound CCOCCOC(=O)C1CCC(=O)N1CN(C(C)=O)c1cc(OC)ccc1OC (centres undefined) > 100 µM

Please list TGI recorded for the compound CC(=O)O[C@H]1C(=O)[C@@]2(C)[C@H]([C@H](OC(=O)c3ccccc3)[C@]3(O)C[C@H](OC(=O)[C@H](O)[C@@H](NC(=O)c4ccccc4)c4ccccc4C)C(C)=C1C3(C)C)[C@]1(OC(C)=O)CO[C@@H]1C[C@@H]2O 1.93 µM

Please list TGI recorded for the compound C1CSC(Sc2nc(SC3=NCCS3)nc(SC3=NCCS3)n2)=N1 > 100 µM

###

The entries below come with measured TGI values attached.
- Tested on: A498 renal
- Method: NCI tumour cell line growth inhibition, 48 h
All answers are understood in µM, so give the number only.

Look over these answered cases.
Compound: N#Cc1c(-c2ccccc2)cc(-c2ccccc2)n(CCCC(=O)NO)c1=O
Numeric Result: 2.95
//
Compound: COc1cc(-c2ccc(-c3ccc(C(=N)N)cc3)s2)cc(OC)c1OC
Numeric Result: 3.96
//
Compound: C/C=C(\C)[C@@H](O)C(=O)O[C@@H]1CC(C(C)(C)O)[C@](C)(CCC(=O)OC)[C@H]2[C@H](OC(=O)[C@H](O)[C@H](C)CC)C[C@]3(C)C(=CC[C@H]3[C@H]3CO[C@H](C=C(C)C)C3)[C@]12C (some centres undefined)
Numeric Result: 60.2

Please list TGI recorded for the compound CC(C)(Cl)C(Br)CCC(C)(Br)C(Br)CBr (centres undefined) 34.8

###

The entries below come with measured TGI values attached.
- Test system: IGROV1 ovarian
- Method: NCI tumour cell line growth inhibition, 48 h

Look over these answered cases.
Compound: CCn1c(=O)c(Oc2ccc(F)cc2F)cc2cnc(NC3CCOCC3)nc21
Readout Kind: TGI
Result: > 25 µM
--
Compound: Clc1ccc(OCc2nn3c(CCCCc4nnc5sc(COc6ccc(Cl)cc6Cl)nn45)nnc3s2)c(Cl)c1
Readout Kind: TGI
Result: > 100 µM
--
Compound: C=CCOC(C)n1c(C)cc(=O)n(C(C)OCC=C)c1=O (stereo unspecified)
Readout Kind: TGI
Result: > 100 µM
--
Compound: Cc1ccc(C(=O)O)cc1NC(=O)c1cc(/C=C/c2ccccc2)[nH]c(=S)n1
Readout Kind: TGI
Result: > 100 µM

Please list TGI recorded for the compound CC(C)OC(=O)[C@@H]1OC(C)(C)O[C@H]1C(=O)OC(C)C > 100 µM

Please list TGI recorded for the compound O=C(N[C@@H](c1ccccc1)[C@@H](O)C(=O)OCc1ccc2c(c1)OCO2)c1ccccc1 > 100 µM

###

- System: K-562 leukemia
- Method: NCI tumour cell line growth inhibition, 48 h
The entries below come with measured TGI values attached.

Compound: CCO/C=N/C1=C(C#N)C(c2ccc(OC)cc2)c2sc3c(F)cccc3c2O1 (centres undefined)
TGI: > 100 µM
//
Compound: COC(=O)/C(=N\NC(=O)c1ccccc1O)C(C#N)c1ccccc1 (centres undefined)
TGI: > 50 µM
//
Compound: CC(C)OC(=O)[C@@H]1OC(C)(C)O[C@H]1C(=O)OC(C)C
TGI: > 100 µM

Shift focus to the following entry.
Please list TGI recorded for the compound O=C(CSc1nc2ccccc2c2ccccc12)c1ccccc1 > 100 µM

Sourced from PubChem BioAssay (NCI)
